assay: qHTS assay for identifying genotoxic compounds that show differential cytotoxicity against isogenic chicken DT40 cell lines with known DNA damage response pathways - Rev3 mutant cell line (AID 743014); conditions: chicken DT40 Rev3-/- viability, CellTiter-Glo, 40 h; series mostly up to 68.4 µM; note: nearly all actives have a fitted effect of over 55% in size
Records with an inconclusive call do not appear. Active and inactive are the calls of the source. Calls come from the whole dose curve; as a rule, active = well fitted cell-killing curve with a large enough effect in the repeat runs; inconclusive = weak or mixed curves, or effect the other way; inactive = no such curve, though single readings can be large or run the other way.
Please answer using one outcome listed in 1 for active, 0 for inactive

Worked examples, 2 molecules total:
>  <molecule>
CC(C)C[C@H](NC(=O)[C@H](CCc1ccccc1)NC(=O)CN1CCOCC1)C(=O)N[C@@H](Cc1ccccc1)C(=O)N[C@@H](CC(C)C)C(=O)[C@@]1(C)CO1

>  <labelClass>
1

$$$$
>  <molecule>
C=C1C[C@@]23CC[C@H]4[C@@](C)(CCC[C@@]4(C)C(=O)O[C@@H]4O[C@H](CO)[C@@H](O)[C@H](O)[C@H]4O)[C@@H]2CC[C@]1(O[C@@H]1O[C@H](CO)[C@@H](O)[C@H](O[C@@H]2O[C@H](CO)[C@@H](O)[C@H](O)[C@H]2O)[C@H]1O[C@@H]1O[C@H](CO)[C@@H](O)[C@H](O)[C@H]1O)C3

>  <labelClass>
0

$$$$

Asked: Entry `C[C@@]12CCC[C@H]1[C@@H]1CC[C@H]3C[C@@H](O)CC[C@]3(C)[C@H]1CC2` : call = ?
Given back: 0

Asked: Entry `O=C(/C=C/c1ccccc1)OCCc1ccccc1` : call = ?
Given back: 0
